STUDY_TARGET: KRas G12D (Homo sapiens (Human), UniProt P01116, G12D)
Sequence (P01116 other isoform, or with tags, fused parts or gaps G12D): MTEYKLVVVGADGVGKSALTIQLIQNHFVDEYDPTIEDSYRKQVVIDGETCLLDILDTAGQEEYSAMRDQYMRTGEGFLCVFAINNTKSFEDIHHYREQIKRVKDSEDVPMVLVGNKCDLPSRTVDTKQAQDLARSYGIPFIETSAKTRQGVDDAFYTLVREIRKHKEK
ASSAY_SUMMARY: KRas G12D Binding Assay (TR-FRET displacement of Cy5 labelled tracer)
CONDITION_LABEL: GDP-loaded KRAS G12D (amino acids 1:169), 60 minute incubation at 22° C.
Counter-ions that a name gives are not always drawn.
As shown below, each of these compounds has a reported pIC50 value.
Schema: pIC50 number; meaning minus log10 of the concentration expressed in molar units.

Consider the reported pIC50 for these compounds:
COMPOUND	STUDY_TARGET	pIC50
N#CC[C@@H]1C[C@@H]2CN(c3nc(OCC45CCCN4CCC5)nc4c(F)c(-c5cc(O)cc6ccccc56)ncc34)C[C@H]1N2	KRas G12D (Homo sapiens (Human), UniProt P01116, G12D)	7.48
C[C@H]1CN2CCC[C@@]2(COc2nc(N3CC4CCC(C3)N4)c3cnc(-c4cccc5cccc(Cl)c45)c(F)c3n2)C1 (stereo in doubt) [Example 227, bis-hydrochloride]	KRas G12D (Homo sapiens (Human), UniProt P01116, G12D)	8.19
Cn1cnnc1CCOc1nc(N2C[C@H]3CC[C@@H](C2)N3)c2cnc(-c3cccc4cccc(Cl)c34)c(F)c2n1	KRas G12D (Homo sapiens (Human), UniProt P01116, G12D)	5.18

Name the reported pIC50 value associated with the compound CCCc1ccccc1-c1ncc2c(N3C[C@H]4CC[C@@H](C3)N4)nc(OCC34CCCN3CCC4)nc2c1F
6.53

Name the reported pIC50 value associated with the compound COCCOc1nc(N2C[C@H]3CC[C@@H](C2)N3)c2cnc(-c3cc(O)cc4ccccc34)c(F)c2n1
6.45

Name the reported pIC50 value associated with the compound COc1ccccc1-c1ncc2c(N3C[C@H]4CC[C@@H](C3)N4)nc(OCC34CCCN3CCC4)nc2c1F
5.87
